experiment: Metabolic stability in mouse liver microsomes assessed as intrinsic clearance; assay type: ADME, Microsome
reported_endpoint: CLH (mL/min/g)

{"smiles_text": "O=c1c(N2C[C@H]3C[C@@H]2CN3)nc2cnc(-c3cnc4cccnn34)cc2n1Cc1ccccc1", "unit_spec": "mL/min/g", "recorded_value": 3}
{"smiles_text": "O=c1c(N2CCC2)nc2cnc(-c3cnc4cccnn34)cc2n1Cc1ccccc1", "unit_spec": "mL/min/g", "recorded_value": 226}
{"smiles_text": "O=c1c(N2CCOCC2)nc2cnc(-c3cnc4cccnn34)cc2n1Cc1ccccc1", "unit_spec": "mL/min/g", "recorded_value": 52}
{"smiles_text": "O=c1c(C(F)F)nc2cnc(-c3cnc4cccnn34)cc2n1Cc1ccccc1", "unit_spec": "mL/min/g", "recorded_value": 11}
{"smiles_text": "O=c1c(N2CC3CC(C2)N3)nc2cnc(-c3cnc4cccnn34)cc2n1Cc1ccccc1", "unit_spec": "mL/min/g", "recorded_value": 10}
{"smiles_text": "CN1C[C@H]2C[C@@H]1CN2c1nc2cnc(-c3cnc4cccnn34)cc2n(Cc2ccccc2)c1=O", "unit_spec": "mL/min/g", "recorded_value": 58}
{"smiles_text": "CN1CCN(c2nc3cnc(-c4cnc5cccnn45)cc3n(Cc3ccccc3)c2=O)CC1", "unit_spec": "mL/min/g", "recorded_value": 227}
{"smiles_text": "O=c1c(N2CCNCC2)nc2cnc(-c3cnc4cccnn34)cc2n1Cc1ccccc1", "unit_spec": "mL/min/g", "recorded_value": 32}

----------
assay: physchem; details: buffer, pH 7.4
Description: Photostability of compound at pH 7.4 under ambient light assessed as compound remaining at 250 uM measured after 24 hrs by 2 LC-MS analysis

{"compound": "CC1Oc2ccc(-c3cnc4ccccn34)nc2N(Cc2ccccc2)C1=O (configuration not stated)", "unit_spec": "%", "modifier": "=", "remaining at 24 h, 250 µM": 39}
{"compound": "O=c1cnc2cnc(-c3cnc4cccnn34)cc2n1Cc1ccccc1", "unit_spec": "%", "modifier": ">", "remaining at 24 h, 250 µM": 97}

----------
This section presents compounds with their documented pKa values.
test: Dissociation constant, pKa of compound; format: physicochemical
reported_endpoint: pKa

{"smiles_text": "O=c1c(N2C[C@H]3C[C@@H]2CN3)nc2cnc(-c3cnc4cccnn34)cc2n1Cc1ccccc1", "reported_endpoint": "pKa", "recorded_value": 8.8}
{"smiles_text": "O=c1c(N2CC3CC(C2)N3)nc2cnc(-c3cnc4cccnn34)cc2n1Cc1ccccc1", "reported_endpoint": "pKa", "recorded_value": 8.7}
{"smiles_text": "CN1CCN(c2nc3cnc(-c4cnc5cccnn45)cc3n(Cc3ccccc3)c2=O)CC1", "reported_endpoint": "pKa", "recorded_value": 7.6}
{"smiles_text": "CN1C[C@H]2C[C@@H]1CN2c1nc2cnc(-c3cnc4cccnn34)cc2n(Cc2ccccc2)c1=O", "reported_endpoint": "pKa", "recorded_value": 8.4}
{"smiles_text": "O=c1c(N2CCNCC2)nc2cnc(-c3cnc4cccnn34)cc2n1Cc1ccccc1", "reported_endpoint": "pKa", "recorded_value": 8.5}

----------
assay: physchem; conditions: buffer, pH 7.4
Description: Thermodynamic solubility of compound at pH 7.4
This section presents molecules with their documented solubility thermodynamic values.
reported_endpoint: solubility thermodynamic (µM)

{"smiles_text": "O=c1c(N2CC3CC(C2)N3)nc2cnc(-c3cnc4cccnn34)cc2n1Cc1ccccc1", "modifier": "=", "recorded_value": 2}
{"smiles_text": "O=c1c(N2CCNCC2)nc2cnc(-c3cnc4cccnn34)cc2n1Cc1ccccc1", "modifier": "<", "recorded_value": 1}
{"smiles_text": "CN1C[C@H]2C[C@@H]1CN2c1nc2cnc(-c3cnc4cccnn34)cc2n(Cc2ccccc2)c1=O", "modifier": "=", "recorded_value": 456}
{"smiles_text": "CN1CCN(c2nc3cnc(-c4cnc5cccnn45)cc3n(Cc3ccccc3)c2=O)CC1", "modifier": "<", "recorded_value": 1}
{"smiles_text": "C[C@H](c1ccccc1)n1c(=O)c(N2CC3CC(C2)N3)nc2cnc(-c3cnc4cccnn34)cc21", "modifier": "=", "recorded_value": 356}
